# credit: a melting point compilation (Tetko et al.; mined from patent text by program, amines drawn as free bases though some values may be those of a salt)

measured_quantity: melting point

**Q:** Recorded melting point of CN1Cc2ccccc2P1(=O)c1ccccc1 (centres undefined) , please.
**A:** 129 to 130 °C

**Q:** Same again, this time with Cn1c(=O)c2c(ncn2CN2CCCC2)n(C)c1=O
**A:** 105 to 108 °C

**Q:** For CC(C)N1CCOC(COc2cccc3c2CC=C3)C1 (centres undefined) then?
**A:** 107 to 109 °C

**Q:** Try this compound next: CC(C)n1nc(-c2c(-c3ccccc3)nc(N)nc2N2CCNCC2)ccc1=O
**A:** 254 to 256 °C

###

measured_quantity: melting point

Known results for compounds:
**Q:** Given the entry O=C1C(=Cc2ccccc2)CS(=O)(=O)CC1=Cc1ccccc1 , report its measured melting point.
**A:** 201 to 203 °C

**Q:** Record: COc1cc(OC)nc(Oc2nccc(-c3ccccc3)c2C(=O)O)n1
**A:** 165 to 169 °C

**Q:** Here is the next compound: COc1cc(CCl)ccc1OCCCCOc1ccc(CCl)cc1OC
**A:** 116 to 118 °C

**Q:** Please give the result for Cc1ccc(Sc2c(N)cc(C(=O)O)cc2S)cc1 too.
**A:** 178 to 182 °C

***
**Q:** Consider the compound CCC1(C)CCNC1=O (stereo not given) and give its measured melting point.
**A:** 39 to 40 °C

**Q:** And the next one, FC(F)(F)c1ccc(-c2ccnc(Nc3ccccc3)n2)cc1 ?
**A:** 162 to 163 °C

**Q:** // repeat for O=C(O)CCc1cn(Cc2ccc(OCc3csc(-c4ccccc4)n3)cc2)nc1-c1ccccc1 and report
**A:** 132 to 133 °C

**Q:** Consider next the compound CC1(C)Cc2cccc(Cl)c2C=[N+]1[O-] in the same way.
**A:** 110 to 111 °C

**Q:** How about this compound: CCOCCc1c(-c2ccccc2)nc(Cl)n2ncnc12
**A:** 134 to 135 °C

**Q:** Also, N#CC1CN1C(=O)CN1C(=O)c2ccccc2C1=O (stereo not given) please.
**A:** 126 to 128 °C

**Q:** Now give it for Nc1c([N+](=O)[O-])cc(Br)c2c1CN(CCc1ccccc1)CC2 too.
**A:** 120 to 122 °C

**Q:** CCC1(CC)C(=O)Nc2ccc(-c3cccc(Cl)c3)cc21 ?
**A:** 156 to 159 °C

**Q:** // query: c1cc2c3c(cccc3c1)C(NOCCCCn1ccnc1)=N2
**A:** 126 to 128 °C

**Q:** Another compound: CC(C)(C)OC(=O)N[C@@H](Cc1ccc(-c2ccc(F)cc2)cc1)C(=O)OCc1ccccc1
**A:** 103 to 104 °C

**Q:** Follow-up entry: N#Cc1sc2cc(N)ccc2c1Cl
**A:** 158 to 160 °C

**Q:** What about COc1ccc2c(c1)N(C)C(=S)C2 ?
**A:** 135 to 136 °C

**Q:** Next record, please: CCOC(=O)Cc1nn(Cc2ccc(Br)c(Cl)c2)c(=S)c2ccccc12
**A:** 124 to 126 °C

**Q:** Also need O=C(C=Cc1ccc(Cl)cc1)NC1CCCNC(=O)C1 (stereo not given) , thanks.
**A:** 256 to 257 °C

**Q:** Record: COCOCc1cccc(-c2ccc(C(=O)O)cc2)c1
**A:** 126 to 127 °C

**Q:** Follow-up item: CCCCC(=NO)C(=O)OCC
**A:** 43.2 to 46.8 °C
